Species on record: Rattus norvegicus
Test: Antiovulatory activity expressed as the percentage of rats blocked at 12 ug
Type: functional
Rats blocked values by entry

COMPOUND	UNIT_TAG	Rats blocked
CC(=O)N[C@H](Cc1ccc2ccccc2c1)C(=O)N[C@H](Cc1ccccc1)C(=O)N[C@H](Cc1ccccc1)C(=O)N[C@@H](CO)CN[C@@H](Cc1ccc(O)cc1)C(=O)N[C@H](CCCN=C(N)N)C(=O)N[C@@H](Cc1ccccc1)C(=O)N[C@@H](CCCN=C(N)N)C(=O)N1CCC[C@H]1C(=O)N[C@H](C)C(=O)O	%	63
CC(=O)N[C@H](Cc1ccc2ccccc2c1)C(=O)N[C@H](Cc1ccccc1)C(=O)N[C@H](Cc1ccccc1)C(=O)N[C@@H](CO)C(=O)N[C@H](CN[C@H](CCCN=C(N)N)C(=O)N[C@@H](Cc1ccccc1)C(=O)N[C@@H](CCCN=C(N)N)C(=O)N1CCC[C@H]1C(=O)N[C@H](C)C(=O)O)Cc1ccc(O)cc1	%	100
CC(=O)N[C@H](Cc1ccc2ccccc2c1)C(=O)N[C@H](Cc1ccccc1)C(=O)N[C@H](Cc1ccccc1)C(=O)N[C@@H](CO)C(=O)N[C@@H](Cc1ccc(O)cc1)C(=O)N[C@H](CCCN=C(N)N)C(=O)N[C@@H](Cc1ccccc1)C(=O)N[C@@H](CCCN=C(N)N)C(=O)N1CCC[C@@H]1CN(C(C)=O)[C@H](C)C(=O)O	%	75
CC(=O)N[C@H](Cc1ccc2ccccc2c1)C(=O)N[C@H](Cc1ccccc1)C(=O)N[C@H](Cc1ccccc1)C(=O)N[C@@H](CO)C(=O)N[C@@H](Cc1ccc(O)cc1)C(=O)N[C@H](CCCN=C(N)N)C(=O)N[C@@H](Cc1ccccc1)C(=O)N[C@@H](CCCN=C(N)N)C(=O)N1CCC[C@@H]1CN[C@H](C)C(=O)O	%	92
